Target: MLLT4 PDZ domain (residues 961-1056) (human) (UniProt P55196)
Assay: MST
pKd: −log10 of the molar value. Where no end group is shown, it is not given here.
measured.attribute: pKd

Which pKd is reported for this binder? NLNSSRVLDLLV (not fully specified) [C-terminal SARS-CoV-2-E PBM P71L mutant peptide (12-mer, beta variant B.1.351)]
< 3.00

Origin of the recorded values: paper doi:10.1101/2021.12.04.471219
